These measurements were taken from the supplement of paper PMC11246515.

Assay: total protein half-life in vivo (active degradation + dilution); higher = more stable protein
Conditions: wild type E. coli NCM3722; growth: C-lim chemostat; doubling time 3 h
MEASUREMENT_TYPE: total protein half-life in vivo (h)
Field format: number, assumed h, no unit text.

MPWIQLKLNTTGANAEDLSDALMEAGAVSITFQDTHDTPVFEPLPGETRLWGDTDVIGLFDAETDMNDVVAILENHPLLGAGFAHKIEQLEDKDWEREWMDNFHPMRFGERLWICPSWRDVPDENAVNVMLDPGLAFGTGTHPTTSLCLQWLDSLDLTGKTVIDFGCGSGILAIAALKLGAAKAIGIDIDPQAIQASRDNAERNGVSDRLELYLPKDQPEEMKADVVVANILAGPLRELAPLISVLPVSGGLLGLSGILASQAESVCEAYADSFALDPVVEKEEWCRITGRKN [P0A8T1]    3.16
MKRASLLTLTLIGAFSAIQAAWAVDYPLPPTGSRLVGQNQTYTVQEGDKNLQAIARRFDTAAMLILEANNTIAPVPKPGTTITIPSQLLLPDAPRQGIIVNLAELRLYYYPPGENIVQVYPIGIGLQGLETPVMETRVGQKIPNPTWTPTAGIRQRSLERGIKLPPVVPAGPNNPLGRYALRLAHGNGEYLIHGTSAPDSVGLRVSSGCIRMNAPDIKALFSSVRTGTPVKVINEPVKYSVEPNGMRYVEVHRPLSAEEQQNVQTMPYTLPAGFTQFKDNKAVDQKLVDKALYRRAGYPVSVSSGATPAASNAPSVESAQNGEPEQGNMLRVTQ    3.12

Here's the next entry for you.
I am curious: what total protein half-life in vivo value has been reported for MPSFDIVSEVDLQEARNAVDNASREVESRFDFRNVEASFELNDASKTIKVLSESDFQVNQLLDILRAKLLKRGIEGSSLDVPENIVHSGKTWFVEAKLKQGIESATQKKIVKMIKDSKLKVQAQIQGDEIRVTGKSRDDLQAVMAMVRGGDLGQPFQFKNFRD [P0A8E7] ?
3.18

* * *

Experiment: total protein half-life in vivo (active degradation + dilution); higher = more stable protein
Details: E. coli NCM3722 delta-hslV; growth: N-lim chemostat; doubling time 6 h
Measured total protein half-life in vivo of individual entries
// units = h; emit number, no label

MPHNPIRVVVGPANYFSHPGSFNHLHDFFTDEQLSRAVWIYGKRAIAAAQTKLPPAFGLPGAKHILFRGHCSESDVQQLAAESGDDRSVVIGVGGGALLDTAKALARRLGLPFVAVPTIAATCAAWTPLSVWYNDAGQALHYEIFDDANFMVLVEPEIILNAPQQYLLAGIGDTLAKWYEAVVLAPQPETLPLTVRLGINNAQAIRDVLLNSSEQALSDQQNQQLTQSFCDVVDAIIAGGGMVGGLGDRFTRVAAAHAVHNGLTVLPQTEKFLHGTKVAYGILVQSALLGQDDVLAQLTGAYQRFHLPTTLAELEVDINNQAEIDKVIAHTLRPVESIHYLPVTLTPDTLRAAFKKVESFKA    4.1

Please examine the following record next.
Suppose we examine the sequence MKFELDTTDGRARRGRLVFDRGVVETPCFMPVGTYGTVKGMTPEEVEATGAQIILGNTFHLWLRPGQEIMKLHGDLHDFMQWKGPILTDSGGFQVFSLGDIRKITEQGVHFRNPINGDPIFLDPEKSMEIQYDLGSDIVMIFDECTPYPADWDYAKRSMEMSLRWAKRSRERFDSLGNKNALFGIIQGSVYEDLRDISVKGLVDIGFDGYAVGGLAVGEPKADMHRILEHVCPQIPADKPRYLMGVGKPEDLVEGVRRGIDMFDCVMPTRNARNGHLFVTDGVVKIRNAKYKSDTGPLDPECDCYTCRNYSRAYLHHLDRCNEILGARLNTIHNLRYYQRLMAGLRKAIEEGKLESFVTDFYQRQGREVPPLNVD [P0A847] ; what total protein half-life in vivo value has been reported?
4.74
